# experiment description: yeast display, Sf9 membrane polyspecificity reagent, FACS + sequencing; frameworks hold sequencing errors
quantity kind: polyreactivity (PSR sort gate)

Examples from the recorded data:
{"columns": ["seq text", "polyreactivity (PSR sort gate)"],
 "data": [
  ["QVQLVESGGGLVQAGGSLRLSCAASGIIFEGNVMGWYRQAPGKERELVAAITSDTSTNYADSVKGRFTISRDNAKNTVYIQMNSLKPEDTAVYYCNAVIGTDYYYSGTAEFYYWGQGTQVTVSS", "low polyreactivity"],
  ["QVQLVESGGGLVQAGGSLRLSCAASGFIIKFCAMGLYRQAPGKERELVATITFSSGTTYYADSVKGRFTISRDNAKYTVYLQMNSLKPEDTAVYYCAASTLPAWPYDGPAGPRYDYWGQGTQVTVSS", "low polyreactivity"],
  ["QVQLVESGGGLVQAGGSLRLSCAASGSIFIVNVMGWYRQAPGKERELVAGITTNGGITYYADSVKGRFTISRDNAKNTVYLQMNSLKPEDTAVYYCATRSASPSSIEMDYWGQGTQVTVSS", "low polyreactivity"],
  ["QVQLGESGGGLLQAGGSVRLSCAASGRTITANAMGLYRQAPGKERELFATISTRGGRTYYADSVKGRFTISRDNSKNTVYLQMHSLKPEETAVFYGAFTIRAKYTLKEDYWGQGTQVTVSS", "low polyreactivity"],
  ["QVQLVESGGGLVQAGGRLRLSCAASGFIFYDYAMGWYRQAPGKERELVAVITSGGSTYYADSVKGRFTISRDNAKNTVYLQMNSLKPEDTAVYYCNADWVFTWYDYPNDKYDYWGQGTQVTVSS", "low polyreactivity"],
  ["QVQLVESGGGLDQAGGSLRLTCAASGRIISGNAMGWYRQAPGKERELVAAISWSGGSTYYADSVKWRFTISRDNEKNTVYLHMNSLQPEDSAVYYCNAPGYRRYGSRMGYCGQGTQVTVSS", "high polyreactivity"],
  ["QVQLVESGGGLVQAGGSLRLSCAASGSIFWGNDMGWYRQAPGKERELVAGIRNSGTSTYYADSVKGRFTISRDHAKNTVYLQMNSLKPEDTAVYYCAAADGRQYSRYYWRGHDYWGQGTQVTVSS", "low polyreactivity"],
  ["QVHLGESGGGLVQAGGSLRLSCAASGSIFYGYAMGWYRHAPGKERELVAAITRDGSTNYADSVKGRFTISRDNAKNTVYLQMNSLKPEDTAVYYCAADTRSRRLSLVRRDYWGQGTQVTVSS", "high polyreactivity"]
]}

Task item: Recorded polyreactivity (PSR sort gate) of QVQLVESGGGLVQAGGSLRLSCAASGSTFGGNGMGWYRQAPGKEREFVATITWRSGSTYYADSVKGRFTISRDKAKNTVYLKMNILKPEDSAVYYCAKYTSSRRNTWYYYWGQGTEVTVSS , please.
Reply: high polyreactivity

Task item: Subsequent entry: QVQLVESGGGLVQAGGSLRLSCADSGRIFGLNAMGWYRQAPGKEREFVAAIRWRGGSTYYADSVKGRFTISRDNAKNTVYLQMNSLKPEDTAVYYCAADRNLGVSRYGYWGQGTQVTVSS
Reply: high polyreactivity

Task item: Subsequent entry: QVQLVESGGGLVQAGGSLRLSCAASGSIFGYYGMGWYRQAPGKERELVATITSGGSTNYADSVKGRFTISRDNAKNTVYLQMNSLKPEDTAVYYCARQYGYQPERYGYWGQGTQVTVSS
Reply: low polyreactivity
